System: MG-63
Test: Antiproliferative activity against human MG63 cells after 3 days by MTT assay
Assay type: functional, cell-based
Conditions: MG-63, 72 h
readout name: IC50 (µM)

O=C1Nc2ccc([N+](=O)[O-])cc2/C1=[N+](\[O-])Cc1ccccc1 :: 77
CN1C(=O)/C(=[N+](/[O-])Cc2ccccc2)c2ccccc21 :: 77
O=C1Nc2ccccc2/C1=[N+](\[O-])Cc1ccccc1 :: 77

* * *

System: K562
Assay: Antiproliferative activity against human K562 cells after 3 days by MTT assay
Format: functional, cell-based
Conditions: K562, 72 h
readout name: IC50

CN1C(=O)/C(=[N+](/[O-])Cc2ccccc2)c2ccccc21 :: 78 µM

Numbers sourced from ChEMBL document CHEMBL4257474.
